- TGT: Recombinant human Aurora B (amino acids 1-344), His tag (Homo sapiens, UniProt Q96GD4)
- Construct: Recombinant human Aurora B (amino acids 1-344, clone number DU1773)
- Sequence (Q96GD4 whole entry, the tested form may be a part): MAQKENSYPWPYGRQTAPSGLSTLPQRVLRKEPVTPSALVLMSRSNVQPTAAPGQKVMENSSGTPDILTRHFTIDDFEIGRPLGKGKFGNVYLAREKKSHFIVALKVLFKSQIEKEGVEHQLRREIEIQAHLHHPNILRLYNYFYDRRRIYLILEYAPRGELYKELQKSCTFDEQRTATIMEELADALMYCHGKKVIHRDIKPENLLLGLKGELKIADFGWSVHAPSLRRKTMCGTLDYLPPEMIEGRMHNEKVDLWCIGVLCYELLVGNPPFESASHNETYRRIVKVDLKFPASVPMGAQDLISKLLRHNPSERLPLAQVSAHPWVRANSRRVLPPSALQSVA
- PROTOCOL_SUMMARY: Aurora B Kinase Test (ADP Glo luminescence)
- Assay type: biochemical
- CONDITIONS_USED: Table 2a, compounds of the invention; read-out: AURB-inhibition IC50-value
- Experimental: The activity of the Aurora B kinase protein was determined using the ADP Glo® Luminescence Kinase test (Promega; V9103X). Serial Dilution is done in 1:10 steps in 100% DMSO. […] The output file of the reader is a csv file that contains the well number and measured RLU. […] Based on this values the % value for the measurement of each substance concentration was calculated using an Assay Explorer software (Accelrys). […]
METRIC: IC50

Use the examples below as a reference point.
| SUBSTANCE_SMILES | METRIC | OBSERVED_VALUE |
| --- | --- | --- |
| Cc1nc2cc(-c3cnn(C(C)(C)C)c3)nc(O[C@H](C)[C@H]3CNC(=O)C3)n2n1 | IC50 | > 50 µM |
| Cc1cc2c(O[C@H](C)[C@H]3CNC(=O)C3)cc(-c3cnn(C(C)(C)C)c3)cn2n1 | IC50 | > 50 µM |

Prompt: Lab note: need IC50 for "Cc1nc2cc(-c3cnn(C(C)(C)C)c3)cc(O[C@H](C)[C@H]3CNC(=O)C3)c2[nH]1" on Recombinant human Aurora B (amino acids 1-344), His tag (Homo sapiens, UniProt Q96GD4), anyone have it?
Response: > 50 µM

----------
- TGT: Recombinant human Aurora B (amino acids 1-344), His tag (Homo sapiens)
- Construct: Recombinant human Aurora B (amino acids 1-344, clone number DU1773)
- PROTOCOL_SUMMARY: Aurora B Kinase Test (ADP Glo luminescence)
- Assay type: biochemical
- CONDITIONS_USED: Table 1; read-out: AURB-inhibition IC50-value
pIC50: −log10 of the molar value.
METRIC: pIC50

Use the examples below as a reference point.
| MOLECULE | METRIC | OBSERVED_VALUE |
| --- | --- | --- |
| Cc1nc2cc(-c3cnn(C(C)(C)C)c3)cc(O[C@H](C)[C@H]3CNC(=O)C3)c2[nH]1 [Example 6] | pIC50 | < 4.30 |
| Cc1cc2c(O[C@H](C)[C@H]3CNC(=O)C3)cc(-c3cnn(C(C)(C)C)c3)cn2n1 [Example 34] | pIC50 | < 4.30 |

Shifting focus to the molecule that follows.
Prompt: Query (molecule): Cc1nc2cc(-c3cnn(C(C)(C)C)c3)nc(O[C@H](C)[C@H]3CNC(=O)C3)n2n1 [Example 84] ; field requested: pIC50
Response: < 4.30

----------
- TGT: FLT3 (Homo sapiens)
- Construct: purchased Invitrogen PV3182
- Sequence (P36888 564-993 limits assumed): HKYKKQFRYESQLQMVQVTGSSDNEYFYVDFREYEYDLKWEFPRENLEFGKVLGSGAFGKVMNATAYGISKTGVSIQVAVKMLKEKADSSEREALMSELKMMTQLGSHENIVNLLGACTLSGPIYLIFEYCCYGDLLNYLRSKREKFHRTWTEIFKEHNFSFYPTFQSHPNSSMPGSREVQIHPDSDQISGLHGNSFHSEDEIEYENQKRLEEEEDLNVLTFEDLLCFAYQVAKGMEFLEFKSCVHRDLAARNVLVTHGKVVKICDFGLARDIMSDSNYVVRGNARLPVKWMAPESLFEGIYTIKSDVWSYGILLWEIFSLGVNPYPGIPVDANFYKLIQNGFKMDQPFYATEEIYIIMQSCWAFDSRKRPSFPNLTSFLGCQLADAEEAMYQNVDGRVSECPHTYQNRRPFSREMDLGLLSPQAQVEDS
- PROTOCOL_SUMMARY: FLT3 Kinase Test (Z'-LYTE)
- Assay type: biochemical
- CONDITIONS_USED: Table 2a, compounds of the invention; read-out: FLT3-inhibition IC50-value
METRIC: IC50

Prompt: Query (compound): Cc1nc2cc(-c3cnn(C(C)(C)C)c3)nc(O[C@H](C)[C@H]3CNC(=O)C3)n2n1 [Example 84] ; field requested: IC50
Response: > 50 µM

----------
- TGT: Human GSK3beta (Homo sapiens)
- Construct: purchased University Dundee/Scotland (Dr. James Hastie, Dept. of Biochemistry); host or cells: SF21 insect cells
- Sequence (P49841 whole entry): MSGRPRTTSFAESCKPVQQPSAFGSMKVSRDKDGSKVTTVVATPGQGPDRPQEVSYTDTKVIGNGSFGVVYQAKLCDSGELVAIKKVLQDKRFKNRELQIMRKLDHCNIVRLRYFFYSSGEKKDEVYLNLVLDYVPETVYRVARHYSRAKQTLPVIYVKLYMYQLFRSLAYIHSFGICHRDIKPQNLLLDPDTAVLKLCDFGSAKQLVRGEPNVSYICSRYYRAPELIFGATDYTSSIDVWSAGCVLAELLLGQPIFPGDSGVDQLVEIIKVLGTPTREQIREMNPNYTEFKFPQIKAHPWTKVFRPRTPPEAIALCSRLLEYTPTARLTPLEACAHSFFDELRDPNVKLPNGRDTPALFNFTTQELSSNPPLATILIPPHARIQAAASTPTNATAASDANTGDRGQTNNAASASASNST
- PROTOCOL_SUMMARY: GSK 3β Kinase-Test (Z'-LYTE)
- Type: biochemical
- CONDITIONS_USED: Table 2c, compounds of WO 2011/092128; read-out: IC50 (GSK3beta-Inhibition)
- Description: Human GSK3beta (expressed and purified from SF21 cells)is obtained from the University Dundee/Scotland (Dr. James Hastie—Dept. of Biochemistry) in 50 mM Tris (pH7.5); 150 mM NaCl; 0.1 mM EGTA, 270 mM Succrose, 0.1% R-mercaptoethanol, 1 mM benzamidine, 0.2 mM PMSF; sequence see below). […] The activity of GSK3β kinase protein is measured using the Z′-LYTETM assay technology from Invitrogen (#PV3324). […]
METRIC: IC50

| COMPOUND | IC50 |
| --- | --- |
| C[C@@H](Oc1nc(-c2ccc(N3CCOCC3)nc2)cc2ncccc12)[C@H]1CNC(=O)C1 [Example 45, reference compound] | > 10 µM |

Shifting focus to the compound that follows.
Prompt: Query (compound): C[C@@H](Oc1nc(-c2ccc(C(F)(F)F)nc2)cc2ncccc12)[C@H]1CNC(=O)C1 [Example 3, reference compound] ; field requested: IC50
Response: > 10 µM

// provenance: patent US20170008896A1
